B1: CLCN6 (parent)
chain: TGLVGLFVDFFVRLFTQLKFGVVQ

# Variants of: B1
# PROCEDURE TEXT: protein stability index of a GFP-peptide fusion (GPS, HEK-293T) (PSI 1-6); higher = more stable;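 note: lentivirally expressed fusions sorted by FACS into six bins by GFP to DsRed ratio, PSI derived from sequencing read proportions per bin multiplied by bin number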
# CONDITION SET: c terminus: a fixed tail appended
Classes by protein stability index: class A: < 2; class B: ≥ 2 and < 3; class C: ≥ 3

The following variants have reported results that may help.
TGLVGLFVDFFVRLFTQLKKGVVQ : class C
TGLVGLFVDFFVMLFTQLKFGVVQ : class C
TGCVGLFVDFFVRLFTQLKFGVVQ : class B
TGLVGLFVDFFVRLFTQLKFGVGQ : class B
TGIVGLFVDFFVRLFTQLKFGVVQ : class B
TGLVGLFVDFFVRLFTQLKFAVVQ : class C
TGLVGLCVDFFVRLFTQLKFGVVQ : class B
TGLVGLFVDFFVRLFTQLKFGIVQ : class B

// query Class (by measured protein stability index) for TGLVGLFVDFFVRLFMQLKFGVVQ
// result class B

// query Class (by measured protein stability index) for TGLYGLFVDFFVRLFTQLKFGVVQ
// result class B

// query Class (by measured protein stability index) for TDLVGLFVDFFVRLFTQLKFGVVQ
// result class A

// query Class (by measured protein stability index) for TGLVGLFVDSFVRLFTQLKFGVVQ
// result class A

// query Class (by measured protein stability index) for TGLVGLFVDFFVRAFTQLKFGVVQ
// result class A

# credit: the supplement of paper PMC10567573
